test: Solubility of the compound in 2% DMSO at pH 7.4; type: physicochemical
ASSAY ENDPOINT: solubility (µM)
Quick reminder: number only, in µM, skip the unit.

Sample N#Cc1ccc(-c2ccc(C3=NOC(c4ccccc4-c4cncnc4)N3c3ccc(N4CCNCC4)cc3)o2)cc1 (stereo in doubt; 38) ; solubility observed: 20

---

target: MAP kinase-activated protein kinase 2 (Homo sapiens, UniProt P49137); assay: Inhibition of MK2 using 5TAMRA-KKLNRTLSVA-COOH as substrate incubated for 30 mins prior to substrate addition measured after 30 mins by immobilized metal ion affinity-based fluorescence polarization assay in presence of 100 uM ATP
Sequence (P49137 whole entry): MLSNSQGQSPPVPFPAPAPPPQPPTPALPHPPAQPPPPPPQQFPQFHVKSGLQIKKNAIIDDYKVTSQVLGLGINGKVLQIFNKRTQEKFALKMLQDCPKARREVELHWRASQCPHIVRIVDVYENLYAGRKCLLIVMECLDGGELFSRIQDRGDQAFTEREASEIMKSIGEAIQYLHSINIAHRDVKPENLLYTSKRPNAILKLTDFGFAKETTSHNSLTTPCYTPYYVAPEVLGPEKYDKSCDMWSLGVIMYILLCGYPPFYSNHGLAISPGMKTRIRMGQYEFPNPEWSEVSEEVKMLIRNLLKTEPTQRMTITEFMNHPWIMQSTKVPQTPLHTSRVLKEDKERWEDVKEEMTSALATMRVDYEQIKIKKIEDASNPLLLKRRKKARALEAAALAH
ASSAY ENDPOINT: pIC50
Notebook: values listed as pIC50 are -log10 of the concentration (mol/L).

For orientation, consider the following solved cases.
>>> reported("N#Cc1cccc(-c2ccc(C3=NOC(c4ccccc4-c4cncnc4)N3c3ccc(N4CCNCC4)cc3)o2)c1 (stereo not drawn)")
5.28
>>> reported("O=c1onc(-c2ccc(-c3ccc(Cl)cc3)o2)n1-c1ccc(N2CCNCC2)cc1")
5.21
>>> reported("Clc1ccc(-c2ccc(C3=NOC(c4ccncc4)N3c3ccc(N4CCNCC4)cc3)o2)cc1 (stereo not drawn)")
7.52
>>> reported("COc1ccc(-c2ccc(C3=NOC(c4ccccc4-c4cncnc4)N3c3ccc(N4CCNCC4)cc3)o2)cc1 (stereo not drawn)")
6.51
>>> reported("Clc1ccc(-c2ccc(C3=NOC(c4ccncn4)N3c3ccc(N4CCNCC4)cc3)o2)cc1 (stereo not drawn)")
7.22

The recorded pIC50 for entry Fc1cc(-c2ccc(C3=NOC(c4ccccc4-c4cncnc4)N3c3ccc(N4CCNCC4)cc3)o2)ccc1Cl (stereo not drawn) equals 6.66

Please fill in: pIC50 reported for Clc1ccc(-c2ccc(-c3nocc3-c3ccc(N4CCNCC4)cc3)o2)cc1 = 5.47

---

test: Solubility of the compound in 10 mM sodium phosphate buffer at pH 7.4; format: physicochemical
ASSAY ENDPOINT: solubility (µM)
Please state the figure in µM; there is no need to write the unit.

The reported value for N#Cc1ccc(-c2ccc(C3=NOC(c4ccccc4-c4cncnc4)N3c3ccc(N4CCNCC4)cc3)o2)cc1 (stereo in doubt; 38) in terms of solubility is 20

---

Reported IC50 values follow for various compounds
target: MAP kinase-activated protein kinase 2 (Homo sapiens); assay: Inhibition of MK2 using 5TAMRA-KKLNRTLSVA-COOH as substrate incubated for 30 mins prior to substrate addition measured after 30 mins by immobilized metal ion affinity-based fluorescence polarization assay in presence of 100 uM ATP
Answer in nM, number only, no unit symbol.

Example entries and their recorded answers appear below.
>>> reported("N#Cc1ccc(-c2ccc(C3=NOC(c4ccccc4-c4cncnc4)N3c3ccc(N4CCNCC4)cc3)o2)cc1 (stereo in doubt; 38)")
6
>>> reported("Clc1ccc(-c2ccc(C3=NOC(c4ccccn4)N3c3ccc(N4CCNCC4)cc3)o2)cc1 (centres undefined)")
30

Looking up Clc1ccc(-c2ccc(C3=NOC(c4cnc[nH]4)N3c3ccc(N4CCNCC4)cc3)o2)cc1 (centres undefined) , I see its IC50 listed as 70

---

target: MAP kinase-activated protein kinase 2 (Homo sapiens); experiment: Inhibition of MK2 using 5TAMRA-KKLNRTLSVA-COOH as substrate incubated for 30 mins prior to substrate addition measured after 30 mins by immobilized metal ion affinity-based fluorescence polarization assay in presence of 100 uM ATP
ASSAY ENDPOINT: pIC50
When answering, recall that pIC50 equals minus log10 of the concentration in mol/L, and write that number alone.

Below, 4 compounds whose answers are already recorded.
>>> reported("Clc1ccc(-c2ccc(C3ON=C(c4ccccc4)N3c3ccc(N4CCNCC4)cc3)o2)cc1 (stereo unspecified)")
5.43
>>> reported("N#Cc1ccc(-c2ccc(C3=NOC(c4ccccc4-c4cncnc4)N3c3ccc(N4CCNCC4)cc3)o2)cc1 (stereo in doubt; 33)")
8.10
>>> reported("N#Cc1ccc(-c2ccc(C3=NOCCN3c3ccc(N4CCNCC4)cc3)o2)cc1")
6.96
>>> reported("Clc1ccc(-c2ccc(C3=NOC(c4ccncc4)N3c3ccc(C4CCNCC4)cc3)o2)cc1 (stereo unspecified)")
6.72

compound Fc1cc(F)cc(C2ON=C(c3ccc(-c4ccc(Cl)cc4)o3)N2c2ccc(N3CCNCC3)cc2)c1 (stereo unspecified) , pIC50 observed: 6.72
